Every entry's value here was drawn from patent US20240209089A1.

- targetSystem: T1, CD8α-cHis fusion protein (UniProt P01732 22-182)
- T1 construct: not shown: C-terminal His tag
- T1 sequence (P01732 22-182): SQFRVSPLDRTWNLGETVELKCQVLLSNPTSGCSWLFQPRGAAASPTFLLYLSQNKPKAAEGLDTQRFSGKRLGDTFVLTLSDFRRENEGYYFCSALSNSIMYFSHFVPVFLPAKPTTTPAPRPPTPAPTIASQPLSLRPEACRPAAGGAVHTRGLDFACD
- measurementProtocol: BLI (ForteBio Octet), biotinylated antibody on SA sensor, CD8α-chis 6.25-100 nM
- Experimental: The anti-CD8α single domain antibody-biontin was fixed on an SA biological sensor. Then, CD8α-chis with a concentration of 6.25-100 nM bound to a nano antibody and then dissociated. The binding dynamic variables of four antibodies C37, C42, C46 and S5 were evaluated and determined by using Octet Data Analysis version 9.0, including Kon, Koff and Kd.
reportedMetric: kon (M⁻¹ s⁻¹)
Numbers only; they are read as M⁻¹ s⁻¹.

binder	kon, M⁻¹ s⁻¹
C42-cHis antibody (VHH, HEK293 construct; an E. coli preparation is also described; Biotinylated for the ForteBio assay; also called SNA006b; SNA006-b) VHH: QVQLVESGGGLVQAGGSLRLSCAASGLTFEDYAIGWFRQAPGKEREGISCIRIYDGNTYSAESVKGRFTISSDNAKNQVYLQINTLKPEDTAVYYCAAGSYYSCSVYPDYDMDYWGKGTLVTVSS	578000
C46-cHis antibody (VHH, HEK293 construct; an E. coli preparation is also described; Biotinylated for the ForteBio assay; also called SNA006c; SNA006-c) VHH: QVQLVESGGGLVQAGGSLRLSCAASGVTFDDLAIGWFRQVPGKGREGVSTIGTSDGTAYYADSVKGRFTISSDNAKNTVYLQMNSLKPEDTAVYYCAVDLDYGLGSLLPMGYDYWGQGTQVTVSS	251000
C37-cHis antibody (VHH, HEK293 construct; an E. coli preparation is also described; Biotinylated for the ForteBio assay; also called C37-his; SNA006a) VHH: QLQLVESGGGLVQAGGSLRLSCAASGLTFEDYAIGWFRQAPGKEREGISCIRIYDGNTYSAESVKGRFTISSDNAKNQVYLQINTLKPEDTAVYYCAAGSYYSCSVYPDYDMDYWGKGTLVTVSS	483000

Kindly consider the entry below.
query: Give recorded kon. S5-cHis antibody (VHH, HEK293 construct; an E. coli preparation is also described; Biotinylated for the ForteBio assay; also called SNA006d; SNA006-d) VHH: QVQLVESGGGLVQAGGSLRVSCAASGGTFSSTAMGWFRQAPGKEREFVAAISWSGGYTYYADSVRGRFTISRDNALNTVSLQMNSLKPEDTAVYYCAADISGLDTVAAGIFTEPNIDYWGKGTLVTVSS
result: 155000
